Assay target: Ubiquitin carboxyl-terminal hydrolase 7 (Homo sapiens)
Test: Ubiquitin-specific protease 7 DUB inhibitors, concentration-effect, biochemical, validation of primary hits (AID 1645861)
Test conditions: purified USP7, Ub-rhodamine cleavage fluorescence, 60 min
Active and inactive are the calls of the source.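 Rule for the calls: active = compounds whose peak USP7 inhibition across the dose series reached 30% or more; inactive = the rest.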
Outcomes: active, inactive

* Cc1ccc(NC(=O)c2ccc3nn(CC(=O)Nc4ccc(F)cc4F)c(=O)n3c2)cc1 | inactive
* C[C@H](NC(=O)Cc1ccccc1F)c1nc2cc(-c3ccccc3F)ncn2n1 | inactive
* O=c1[nH]c(C2CCN(S(=O)(=O)c3ccc(S(=O)(=O)NC4CCCC4)cc3)CC2)nc2c1nnn2Cc1cccc(Cl)c1 | inactive
* O=C(CCCCn1c(=O)c2ccccc2n(CC(=O)Nc2ccc3c(c2)OCCO3)c1=O)NCc1ccco1 | inactive
* CC(=O)N1CCc2cc(S(=O)(=O)NC(Cc3ccccc3)C(=O)Nc3cccc(Cl)c3C)ccc21 (centres undefined) | inactive
* COc1ccc(S(=O)(=O)N2CCc3ccccc32)cc1C(=O)Nc1ccc2[nH]c(=O)[nH]c2c1 | inactive
* O=C(CSc1nnc2c3ccccc3nc(-c3ccco3)n12)N1CCCc2ccccc21 | inactive
* O=C1Cc2ccccc2C(=O)N1c1ccc2c(c1)OCO2 | inactive
* COc1ccc(-c2c(NC(=O)C3COc4ccccc4O3)n[nH]c2C)cc1OC (centres undefined) | inactive
* O=C(NCc1ccco1)c1ccc(Cn2c(=O)c3sccc3n(Cc3cc(=O)n4ccccc4n3)c2=O)cc1 | inactive
* O=C(CCn1c(=O)c2ccccc2n(Cc2ccc(F)cc2Cl)c1=O)NCc1ccco1 | inactive
* CC1(C)Cc2c(c(-c3ccco3)nc3sc4c(SCCCc5ccccc5)ncnc4c23)CO1 | inactive
* Cc1cc(O)c2c3c(c(O)cc2c1)C(=O)c1c(O)cccc1C3=O | active
* O=C(COc1ccccc1-c1nnc(-c2ccccc2)o1)NCCc1ccco1 | inactive
* CCOC(=O)c1ccc(NC(=O)Cn2c(=O)n(CC(=O)NCc3ccco3)c(=O)c3ccccc32)cc1 | inactive
* O=C1C=C(O)c2c(O)cccc2C1=O | inactive
* CC(C)=CCCC1(C)C=Cc2c(O)c3c(c(CC=C(C)C)c2O1)OC12C(=CC4CC1C(C)(C)OC2(C/C=C(/C)C(=O)O)C4=O)C3=O (centres undefined) | active
* CC(C)Cc1ccc(-c2cc(-c3ccc(C(F)(F)F)cc3)c(C#N)c(=O)[nH]2)cc1 | inactive
* CCCCCCCCCCCCCCCc1cc(O)cc(O)c1C(=O)O | active

----------
Assay target: Ubiquitin carboxyl-terminal hydrolase 7 (Homo sapiens) (UniProt Q93009)
Sequence (Q93009 whole entry, looked up): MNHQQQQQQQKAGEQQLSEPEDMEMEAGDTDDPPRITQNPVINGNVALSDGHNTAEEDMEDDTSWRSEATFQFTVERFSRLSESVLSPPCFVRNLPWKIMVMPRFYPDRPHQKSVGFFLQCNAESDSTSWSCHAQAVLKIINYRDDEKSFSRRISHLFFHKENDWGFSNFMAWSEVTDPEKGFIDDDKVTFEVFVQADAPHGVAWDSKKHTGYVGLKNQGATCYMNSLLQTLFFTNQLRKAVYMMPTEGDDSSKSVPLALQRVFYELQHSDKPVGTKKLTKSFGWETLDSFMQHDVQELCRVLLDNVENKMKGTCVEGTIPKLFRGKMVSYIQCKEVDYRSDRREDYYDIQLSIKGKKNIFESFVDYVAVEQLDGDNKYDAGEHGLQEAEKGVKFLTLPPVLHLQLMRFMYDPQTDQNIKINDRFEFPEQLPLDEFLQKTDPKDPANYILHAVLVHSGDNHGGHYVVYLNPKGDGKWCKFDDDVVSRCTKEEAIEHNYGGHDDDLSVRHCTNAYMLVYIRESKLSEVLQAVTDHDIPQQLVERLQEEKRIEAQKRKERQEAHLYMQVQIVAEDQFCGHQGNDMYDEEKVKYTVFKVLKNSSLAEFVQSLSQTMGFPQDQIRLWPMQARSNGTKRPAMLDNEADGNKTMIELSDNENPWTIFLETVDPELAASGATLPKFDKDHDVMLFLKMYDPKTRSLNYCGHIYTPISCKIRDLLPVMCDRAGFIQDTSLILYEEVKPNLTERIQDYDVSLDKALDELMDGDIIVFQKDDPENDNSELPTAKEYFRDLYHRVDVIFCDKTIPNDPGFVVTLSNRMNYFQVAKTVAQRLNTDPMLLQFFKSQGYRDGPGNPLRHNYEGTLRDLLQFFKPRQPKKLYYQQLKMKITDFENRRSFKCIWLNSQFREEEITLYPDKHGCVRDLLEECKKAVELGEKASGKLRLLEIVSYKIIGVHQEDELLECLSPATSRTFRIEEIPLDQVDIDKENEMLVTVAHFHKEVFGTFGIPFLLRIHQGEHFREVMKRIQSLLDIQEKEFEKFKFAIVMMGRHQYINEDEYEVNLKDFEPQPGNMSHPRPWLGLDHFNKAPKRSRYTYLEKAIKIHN
Test: Ubiquitin-specific protease 7 DUB inhibitors, concentration-effect, biochemical, validation of primary hits (AID 1645861)
Test conditions: purified USP7, Ub-rhodamine cleavage fluorescence, 60 min
The source made the active and inactive calls.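 How the source made its calls: active means compounds whose peak USP7 inhibition across the dose series reached 30% or more; inactive means the rest.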
Outcomes: active, inactive

* O=C(Nc1cccc(Br)c1)c1cc(-c2cccnc2)n[nH]1 | active
* CC(OC(=O)c1cc(S(=O)(=O)Nc2ccccc2F)ccc1Cl)C(=O)Nc1ccc([N+](=O)[O-])cc1C(F)(F)F (stereo not given) | inactive
* Cn1c(=O)c2nc(-c3ccc(Cl)cc3)nnc2n(C)c1=O | inactive
* Cc1ccc(-c2nc(NC(=O)COc3ccc(Cl)cc3)no2)cc1 | active
* O=C(Nc1ccc(F)cc1)Nc1ccccc1OCc1cc(=O)n2ccccc2n1 | inactive
* O=C(CSc1nc2c(cnn2-c2ccccc2)c(=O)[nH]1)Nc1ccc(Cl)cc1F | inactive
* Cc1ccc(NC(=O)Cn2cc(C(=O)c3ccccc3)c(=O)c3cc(C)ccc32)cc1 | inactive
* Nc1ccc(C(=O)OCC(=O)NC2CCCc3ccccc32)cc1[N+](=O)[O-] (stereo not given) | inactive
* O=S(=O)(Nc1ccc(Oc2ncnc3cc(Cl)ccc23)nc1)c1ccc(S(=O)(=O)c2ccccc2)s1 | active
* O=C1CC(O)C(C2=CC(=O)c3c(O)cccc3C2=O)O1 (stereo not given) | active
* Cc1ccc(NC(=O)Cn2c(=O)n(CC(=O)NCc3ccco3)c(=O)c3ccccc32)cc1C | inactive
* Cc1cccc(C)c1NC(=O)CN1C(=O)CC(c2ccccc2)=Nc2ccccc21 | inactive
* Cc1cc(C(=O)NC2(O)C(=O)c3ccccc3C2=O)n(C)n1 | inactive
* COc1ccc(Cl)cc1NC(=O)COC(=O)c1cc2ccccc2oc1=O | inactive
* O=C(Cn1c(=O)c2ccccc2n(CC(=O)Nc2cccc(F)c2)c1=O)NCCc1ccccc1 | inactive
* CCOC(=O)N1CCN(C(=O)c2ccc(NCc3ccc(F)cc3)c(S(=O)(=O)Nc3cccc(C(F)(F)F)c3)c2)CC1 | inactive
* COC(=O)c1ccc2c(=O)n(CCCCCC(=O)NCCc3ccc(S(N)(=O)=O)cc3)c(=O)[nH]c2c1 | inactive
* COc1ccc(OC)c(-c2cn3ccn(-c4ccc(F)c(Cl)c4)c(=O)c3n2)c1 | inactive
* O=C1Cc2ccccc2C(=O)N1Cc1cccc(Cl)c1 | inactive
* COc1ccc(OC)c(NC(=O)c2sc(-c3ccccc3)nc2C)c1 | inactive
